# PROTOCOL DETAILS: yeast display, Sf9 membrane polyspecificity reagent, FACS + sequencing; frameworks hold sequencing errors
EXPERIMENTAL READOUT: polyreactivity (PSR sort gate)

QVQHVVSVGGLVQAGGSLRLSCAASGSTFLLNTMGWYRQAPGKERELVAAISSITGDTYYADSVKGRFTISRDNAKNTVYLQMNSLKPEDTAVYYCAAYLSETRPYLYDYWGLGTQVTVSS low polyreactivity
QVQLVESGGGLVQAGGSLRLSCAASGRIFTYYPMGWYRQAPGKQRELVAAISWNGDSTYYADSVKGRFTISRDNAKNTVYLQMNSLKPEDTAVYYCIADSFTGYDYWGQGTQVTVSS low polyreactivity
QVQLVESGGGLVQAGGSLRLSCAASGSTFYTNAMGWYRQAPGKERELFAAIRQSGGTTHYADSVKGRFTISRDNAKNTVYLLMNSLKPEDTAVYYCAAVSGGYSRRYRYGYWGQGTQVTVSS high polyreactivity
QVQLVESGGGLVQAGGRRRLSCAASGSTYNPYPMGWYRQAPGKERELLATITWRGTSTYYADSVKGRFTISRDNAKYTVYLQMNSLKPEDTAVYYGAKGFVYNYPKTYKSYSTYYYWGQGTQVTVSS high polyreactivity

Next up:
Query :: Item `QVHLVESGGGLVQAGGSLRLSCAASGSTFYPYAMGWYRQAPGKEREVVAGISRSGGTTYYADSVKGRFTISRDNANNTVYLQMNSLKPEDTAVYYCAVQIPYVYWSYDYWGQGTQVTVSS` : provide polyreactivity (PSR sort gate)
Result :: low polyreactivity

----------
# PROTOCOL DETAILS: yeast display, Sf9 membrane polyspecificity reagent, FACS + sequencing; frameworks hold sequencing errors
EXPERIMENTAL READOUT: polyreactivity (PSR sort gate)

QVQLVESGGGLVQAGGSLRLSCAASGSIFYYYSMGWYRQAPGKERELVAAMSTGGGSTYYADSVKGRFTISRDNAKNTVYLQMNSLKPEDTSVYYCAAPWGYYSSFTDDYWGQGTQVTVSS low polyreactivity
QVQLVESGGGLVQAGGSLRLSCAASGRTLYIYAMGWYREAPGKERELVAAITNGGTTYADSVKGRFTISRDNAKNTVYLQINSLKPEDTAVYYCNADLRVSRITQYEYWGQGTQVTVSS low polyreactivity

----------
# PROTOCOL DETAILS: yeast display, Sf9 membrane polyspecificity reagent, FACS + sequencing; frameworks hold sequencing errors
EXPERIMENTAL READOUT: polyreactivity (PSR sort gate)

Here's what some known entries look like.
QVQLVESGGGLVQAGGSLRLSCAASGSIFSKYVMGWYRQAPGKERELVAAISWSGTRTYYADSVKGRFTISRDNAKNTVYLQMNSLKPEDTAVYYCAARRLYAGHQYDYWGQGTQVTVSS high polyreactivity
QVQLVESGGGLVQAGGSLRLSCAASGIIFYYYAMGWYRQAPGKERELVAAISTSGGRTYYADSVKGRFTISRDNAKSTVYLQMNSLKPEDTAVYYCAKDFWYVTGGWSSGLDYWGQGTQVTVSS low polyreactivity
QVQLVESGGGLVQAGGSLRLSCAASGSISLAYAMGWYRQAPGKERELVAAISFRTGRTFYADSVKGRFTISRDNAKNTVYLQMNSLKPEDTAVYYCAAENLDFYFEEYWGQGTQVTVSS high polyreactivity
QVQLVESGGGLVQAGGSLRLSCAASGRIFQQYALGWYRQAPGKEREWVAVITYRAGRTHYADSVKGRFTISRDNAKNTVYLQMNSLKPEDTAVYYCAAGRYYAVWQSISGFDSWGQGTQVTVSS low polyreactivity

Query :: Item `QVQLVESGRGLVQAGGSLRLSCAASGSTFRYNAMGWYRQAPGKERELVAAINRGGGTDYADSVKGRFTISRDNAKNTDYLQMNSLKPEDTAVYYCAKQFVSYNRWLAYGYWGQGTQVTVSS` : provide polyreactivity (PSR sort gate)
Result :: low polyreactivity

Reference source: the nanobody polyreactivity screen of Harvey et al. (2022)
